- Tested on: NCI-H1793
- Test Method Notes: relative viability (nuclei count vs DMSO), 5 days (fraction); higher = more cells survive
- Condition Info: first compound 0.8 µM
Measurement Name: relative viability
Kindly provide the number alone.

Task item: Requested read-out: relative viability. Entry: CCCCCCCCCCCC1=C(O)C(=O)C=C(O)C1=O [Embelin] + O=C(c1cc(Cc2n[nH]c(=O)c3ccccc23)ccc1F)N1CCN(C(=O)C2CC2)CC1 [Olaparib] (partner 8 µM)
Reply: 1.03

Task item: Requested read-out: relative viability. Entry: CCCCCCCCCCCC1=C(O)C(=O)C=C(O)C1=O [Embelin] + O=C(CCCCCCC(=O)Nc1ccccc1)NO [Vorinostat] (partner 1 µM)
Reply: 0.842

Task item: Requested read-out: relative viability. Entry: CCCCCCCCCCCC1=C(O)C(=O)C=C(O)C1=O [Embelin] + C[C@]1(O)C[C@@H](c2nc(-c3ccc4ccc(-c5ccccc5)nc4c3)c3c(N)nccn32)C1 [Linsitinib] (partner 1 µM)
Reply: 1.15

Entry source: the supplement of paper PMC10307832
